Target: T1, rat NPR-A (rat, UniProt P18910 29-1057)
T1 sequence (looked up): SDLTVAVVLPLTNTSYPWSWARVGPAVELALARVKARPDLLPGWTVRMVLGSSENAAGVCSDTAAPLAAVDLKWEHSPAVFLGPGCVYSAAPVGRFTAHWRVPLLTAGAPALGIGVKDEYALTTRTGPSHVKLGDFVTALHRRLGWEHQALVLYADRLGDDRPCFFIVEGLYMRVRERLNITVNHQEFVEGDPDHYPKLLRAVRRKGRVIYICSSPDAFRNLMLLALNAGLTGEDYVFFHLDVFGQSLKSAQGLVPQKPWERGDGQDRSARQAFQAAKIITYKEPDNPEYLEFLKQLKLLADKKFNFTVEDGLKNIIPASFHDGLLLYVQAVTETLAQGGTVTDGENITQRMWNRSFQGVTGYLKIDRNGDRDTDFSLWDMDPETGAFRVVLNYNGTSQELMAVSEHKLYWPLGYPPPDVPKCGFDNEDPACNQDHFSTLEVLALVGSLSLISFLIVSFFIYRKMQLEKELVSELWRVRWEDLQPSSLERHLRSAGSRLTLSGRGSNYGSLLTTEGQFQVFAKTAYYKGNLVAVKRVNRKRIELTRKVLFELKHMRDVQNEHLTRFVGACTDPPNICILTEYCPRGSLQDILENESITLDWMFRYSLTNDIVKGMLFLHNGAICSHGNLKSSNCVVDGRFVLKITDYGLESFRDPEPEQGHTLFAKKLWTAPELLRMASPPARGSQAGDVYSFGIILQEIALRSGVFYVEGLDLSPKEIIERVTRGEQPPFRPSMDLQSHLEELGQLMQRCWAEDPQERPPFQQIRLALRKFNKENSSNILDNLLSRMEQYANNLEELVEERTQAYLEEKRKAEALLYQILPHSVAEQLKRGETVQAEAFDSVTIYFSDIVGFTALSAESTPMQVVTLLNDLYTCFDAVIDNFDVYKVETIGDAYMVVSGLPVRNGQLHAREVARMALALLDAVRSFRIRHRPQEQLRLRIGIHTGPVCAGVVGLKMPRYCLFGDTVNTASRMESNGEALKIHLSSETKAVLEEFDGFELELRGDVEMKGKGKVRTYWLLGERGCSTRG
Test: cell-based or functional assay
Positions of bridges follow the written chain, without caps; N, C: chain ends. No end group written: not given here.
Decision: Rate of generation of cGMP: Ratio compared wild type NPs compared against 8 ratio; not below it gives True, below it gives False.

[in] Does the reported Rate of generation of cGMP: Ratio compared wild type NPs for GLLISCFDRRIDRISHTSDIGCNSFRY (disulfide 6-22) [K-Ring^NSFRY] fall at or above the 8 ratio mark?
[out] True

[in] Please tell me: is the binder GLLISCFGRRIDRISHTSDIGCRH (disulfide 6-22) [^GRDK-Ring] at or over 8 ratio in terms of Rate of generation of cGMP: Ratio compared wild type NPs?
[out] False

[in] For this binder, is measured Rate of generation of cGMP: Ratio compared wild type NPs 8 ratio or higher? SLRRSSCFDRRMDRIGAQSDLGCNSFRY (disulfide 7-23 (inferred)) [^DRDANP]
[out] True

[in] Answer whether Rate of generation of cGMP: Ratio compared wild type NPs of GLLISCFGRRIDRISHTSGIGCRH (disulfide 6-22) [^GRGK-Ring] is greater than or equal to 8 ratio.
[out] True

[in] State whether the measured Rate of generation of cGMP: Ratio compared wild type NPs reaches 8 ratio, counting equality as reaching it, for GLLISCFDRRIDRISHTSGIGCRH (disulfide 6-22) [^DRGK-Ring]
[out] False

[in] Please tell me: is the binder SLRRSSCFDGRMDRIGAQSDLGCNSFRY (disulfide 7-23 (inferred)) [^DGDANP] at or over 8 ratio in terms of Rate of generation of cGMP: Ratio compared wild type NPs?
[out] True

[in] Item GLLISCFDGRIDRISHTSDIGCRH (disulfide 6-22) [^DGDK-Ring] with Rate of generation of cGMP: Ratio compared wild type NPs of 8 ratio or above?
[out] False

[in] Form field: Rate of generation of cGMP: Ratio compared wild type NPs at least 8 ratio? Entry: GLLISCFDRRIDRISHTSDIGCRH (disulfide 6-22) [K-Ring]
[out] False

Recorded values, source patent US20190211071A1.
